Test system: Salmonella enterica serovar Typhimurium SL1344
test.protocol: normalized intracellular growth (luminescence, IQM-normalized) in RAW264.7 macrophages (fraction of plate interquartile mean); higher = more bacterial growth (less inhibition)
run.parameters: 10 µM, time point: T3 (3 h)
The full ranking holds about 1,600 compounds; the median of “normalized intracellular growth (luminescence, IQM-normalized) in RAW264.7 macrophages” is about 1, and the lowest 2% start at about 0.43. Only a selection was taken, and the lowest values are over-represented in it overall.

compound	assayed.system	normalized intracellular growth
CCCCC/C=C/CCC(=O)N[C@H]1[C@H](Oc2c3cc4cc2Oc2ccc(cc2Cl)[C@@H](O[C@@H]2O[C@H](CO)[C@@H](O)[C@H](O)[C@H]2NC(C)=O)[C@@H]2NC(=O)[C@H](NC(=O)[C@@H]4NC(=O)[C@H]4NC(=O)C(Cc5ccc(c(Cl)c5)O3)NC(=O)[C@H](N)c3ccc(O)c(c3)Oc3cc(O)cc4c3)c3ccc(O)c(c3)-c3c(OC4O[C@H](CO)[C@@H](O)[C@H](O)[C@@H]4O)cc(O)cc3[C@@H](C(=O)O)NC2=O)O[C@H](CO)[C@@H](O)[C@@H]1O (some centres not stated) [TEICOPLANIN [A(2-1) shown]]	Salmonella enterica serovar Typhimurium SL1344	0.955
NCCCC(O)(P(=O)(O)O)P(=O)(O)O	Salmonella enterica serovar Typhimurium SL1344	0.994
CN(C)[C@@H]1C(O)=C(C(N)=O)C(=O)[C@@]2(O)C(O)=C3C(=O)c4c(O)cccc4[C@@](C)(O)[C@H]3[C@H](O)[C@@H]12	Salmonella enterica serovar Typhimurium SL1344	1.01
CC(=O)Nc1ccc(C(=O)O)cc1	Salmonella enterica serovar Typhimurium SL1344	1.06
CC(C)(C)CC(C)(C)c1cc(Cc2cc(C(C)(C)CC(C)(C)C)cc(-n3nc4ccccc4n3)c2O)c(O)c(-n2nc3ccccc3n2)c1	Salmonella enterica serovar Typhimurium SL1344	1.02
Cc1cc2nc3c(=O)[nH]c(=O)nc-3n(CC(O)C(O)C(O)COP(=O)(O)O)c2cc1C (configuration not stated)	Salmonella enterica serovar Typhimurium SL1344	0.886
CCOC(=O)C1=C[C@@H](OC(CC)CC)[C@H](NC(C)=O)[C@@H](N)C1	Salmonella enterica serovar Typhimurium SL1344	1.01
CCC(=O)O[C@H](CC(=O)O)C[N+](C)(C)C	Salmonella enterica serovar Typhimurium SL1344	1.06
CC(C)NC(=N)NC(=N)Nc1ccc(Cl)cc1	Salmonella enterica serovar Typhimurium SL1344	0.664
N=C(NCCCCCCNC(=N)NC(=N)Nc1ccc(Cl)cc1)NC(=N)Nc1ccc(Cl)cc1	Salmonella enterica serovar Typhimurium SL1344	0.912
S=C=Nc1ccc(N=C=S)cc1	Salmonella enterica serovar Typhimurium SL1344	1.04
CCC/C=C\C=C/C(=O)N[C@@H](CC(N)=O)C(=O)NC(CC(N)=O)C(=O)N[C@@H](C(=O)N[C@H](CCCN)C(=O)N[C@@H](C(=O)N[C@@H](C(=O)N[C@@H](C(=O)N[C@H](C(=O)N[C@@H](Cc1ccccc1)C(=O)N[C@H](CCCN)C(=O)NC(C(=O)N[C@H](C(=O)NC(C(=O)NCC(=O)N[C@@H](CC(C)C)C(=O)N[C@H](C)C(=O)NC(C(=O)O)C1CCC(O)C(Cl)C1)C1CCC(O)CC1)[C@H](C)O)C1CCC(O)CC1)[C@H](C)O)C1CCC(O)CC1)C1CCC(O)CC1)[C@H](C)O)C1CCC(O)CC1 (some centres not stated) [RAMOPLANIN [A2 shown; 2mM]]	Salmonella enterica serovar Typhimurium SL1344	0.984
CC[C@H]1OC(=O)[C@H](C)C(=O)[C@H](C)[C@@H](O[C@@H]2O[C@H](C)C[C@H](N(C)C)[C@H]2O)[C@](C)(OC)C[C@@H](C)C(=O)[C@H](C)[C@H]2N(CCCCn3cnc(-c4cccnc4)c3)C(=O)O[C@]12C	Salmonella enterica serovar Typhimurium SL1344	1.01
CN(C)[C@@H]1C(O)=C(C(N)=O)C(=O)[C@@]2(O)C(O)=C3C(=O)c4c(O)ccc(Cl)c4[C@@H](O)[C@H]3C[C@@H]12	Salmonella enterica serovar Typhimurium SL1344	0.727
CN(Cc1cnc2nc(N)nc(N)c2n1)c1ccc(C(=O)NC(CCC(=O)O)C(=O)O)cc1 (racemic)	Salmonella enterica serovar Typhimurium SL1344	1.05
CC(=O)N(c1onc(C)c1C)S(=O)(=O)c1ccc(N)cc1	Salmonella enterica serovar Typhimurium SL1344	0.951
CC1(C)OC(=O)C(OCC2CC2)=C1c1ccc(S(C)(=O)=O)cc1	Salmonella enterica serovar Typhimurium SL1344	1.15
O=C1c2ccccc2C(=O)C1c1ccc(Br)cc1	Salmonella enterica serovar Typhimurium SL1344	1.08
N[C@@H](Cc1ccc(O)cc1)C(=O)O	Salmonella enterica serovar Typhimurium SL1344	0.934
CCCNC(C)(C)COC(=O)c1ccccc1	Salmonella enterica serovar Typhimurium SL1344	0.828
Cc1cc(O)cc(C)c1Cl	Salmonella enterica serovar Typhimurium SL1344	1.03
O=C(OOC(=O)c1ccccc1)c1ccccc1	Salmonella enterica serovar Typhimurium SL1344	1
Cc1c(OCC(F)(F)F)ccnc1C[S@@+]([O-])c1nc2ccccc2[nH]1	Salmonella enterica serovar Typhimurium SL1344	0.98
CN(C)c1ccc2nc3ccc(=[N+](C)C)cc-3sc2c1	Salmonella enterica serovar Typhimurium SL1344	1.29
CN(C)[C@@H]1C(O)=C(C(N)=O)C(=O)[C@@]2(O)C(O)=C3C(=O)c4c(O)ccc(Cl)c4[C@@](C)(O)[C@H]3C[C@@H]12	Salmonella enterica serovar Typhimurium SL1344	0.846
CCC(=O)O[C@H]1[C@H](O[C@@H]2[C@@H](C)[C@H](O[C@H]3C[C@@](C)(OC)[C@@H](O)[C@H](C)O3)[C@@H](C)C(=O)O[C@H](CC)[C@@](C)(O)[C@H](O)[C@@H](C)C(=O)[C@H](C)C[C@@]2(C)O)O[C@H](C)C[C@@H]1N(C)C	Salmonella enterica serovar Typhimurium SL1344	0.792
CN1CC(=O)NC1=N	Salmonella enterica serovar Typhimurium SL1344	1.03
Nc1ncnc(Nc2ccc(Cl)cc2)n1	Salmonella enterica serovar Typhimurium SL1344	1.1
NC(=O)CCCCC1CCSS1 (configuration not stated)	Salmonella enterica serovar Typhimurium SL1344	0.996
C1CNCCN1	Salmonella enterica serovar Typhimurium SL1344	0.991
CC(C)CCCC(C)NC(C)C (configuration not stated)	Salmonella enterica serovar Typhimurium SL1344	1
O=C(OCc1ccccc1)c1ccccc1	Salmonella enterica serovar Typhimurium SL1344	0.966
